Test: RAM signaling pathway blockade in yeast – S. cerevisiae, Pdr1DBD-CYC8 efflux-inhibited sensitized strain, primary screen (AID 1298);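 also: higher means more yeast growth rescued from 5-FOA killing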
Settings: S. cerevisiae cbk1-as DSE1-URA3 strain, 5-FOA growth OD615, 2 d; at 50 µM; stronger effect = higher value
Threshold check on RAM network inhibition: at or above 4% gives Yes, strictly below gives No.

Worked examples, 5 molecules total:
{"columns": ["molecule", "qualitative.label"],
 "data": [
  ["CCN1c2ccccc2NC2C1C(C(C)=O)C(=O)N2c1ccc(Cl)cc1 (stereo unspecified)", "Yes"],
  ["CCOc1ccc(-n2c(SC(C)C(=O)OC)nc3c(c2=O)SCC3)cc1 (stereo unspecified)", "Yes"],
  ["Cc1cccc(NC(=O)CSc2nnc(-c3ccccc3)n2N)c1", "Yes"],
  ["Cc1ccc2c(c1)c1cccc3c1n2CCN3CCC(N)=O", "Yes"],
  ["CCCCn1c(CN2CCN(C(=O)c3ccco3)CC2)nc2c1c(=O)n(C)c(=O)n2C", "No"]
]}

Threshold query (RAM network inhibition >= 4%) on "O=C(CSc1nc2c(cnn2-c2ccc(F)cc2)c(=O)[nH]1)N1CCOCC1" Yes
